# Test system: KG-1
# PROTOCOL DETAILS: Cell-based antiproliferative test (AlamarBlue), KG-1
# CONDITIONS: Homo sapiens, KG-1; 120 h incubation; average values of several tests; read-out: KG-1 IC50, mkM
READOUT TYPE: IC50

> print(dat)
                                        smi  readout.type      result
1  Cn1cc(-c2ccc(-c3cnc(N)c4ncc(C(=O)NC5CC5)cc34)cc2)cn1          IC50     < 10 nM
2  COCCN(C)C(=O)c1cnc2c(N)ncc(-c3ccc(-c4cnn(C)c4)cc3)c2c1          IC50     < 10 nM
3  NC(=O)c1ccc(-n2cnc3ccc(N4CC(C(=O)Nc5ccccc5)C4)cc32)cc1          IC50  > 10000 nM

----------
# PROTOCOL DETAILS: Permeability through Caco-2 cell monolayer
# Assay type: in vitro ADME
# CONDITIONS: human, Caco-2; efflux = Papp B-A / Papp A-B
Overview of recorded efflux ratio at 2 h, 10 µM for various compounds
READOUT TYPE: efflux ratio at 2 h, 10 µM

> print(dat)
                                        smi                readout.type  result
1  Cn1cc(-c2ccc(-c3cnc(N)c4ncc(C(=O)N5CCOCC5)cc34)cc2)cn1  efflux ratio at 2 h, 10 µM     0.9
2  O=C(C1CN(c2cc(F)c3ncn(-c4ccc(-c5cn[nH]c5)cc4)c3c2)C1)N1CCOCC1  efflux ratio at 2 h, 10 µM     2.9
3  Cn1cc(-c2ccc(-c3cnc(N)c4ncc(C(=O)NCCO)cc34)cc2)cn1  efflux ratio at 2 h, 10 µM     1.6
4  O=C(c1ccncc1)c1c[nH]c2ncc(-c3ccc(N4CCOCC4)cc3)cc12  efflux ratio at 2 h, 10 µM    0.28
5  O=C(c1cccnc1)c1c[nH]c2ncc(-c3ccc(N4CCOCC4)cc3)cc12  efflux ratio at 2 h, 10 µM    1.08
6  O=C(C1CN(c2ccc3ncn(-c4ccc(-c5cn[nH]c5)cc4)c3c2F)C1)N1CCOCC1  efflux ratio at 2 h, 10 µM    0.79
